Items are presented alongside their recorded Tagg.
# method-description: Thermostability (Tm, Tonset, Tagg) by Nanotemper DSF
# Assay type: physicochemical
# Parameters: key: temperatures in °C
# recorded-conditions: Replicate 2

molecule: SDAB22110-4-3-E05: anti-Fel d1 VHH clone, SEQ ID NO: 55 (protein) VHH: QVQLVESGGGLVQPGGSLRLSCVGSGFTFSQYAMRWYRQVPGKARELVAAISRSGDFMYYADSVKGRFTISRDNVKSAVILQMNSLKPEDTAVYYCYGQATISDTLWGQGTQVTVSS
Tagg: 40.93
--
molecule: SDAB22110-4-3-H02: anti-Fel d1 VHH clone, SEQ ID NO: 57 (protein) VHH: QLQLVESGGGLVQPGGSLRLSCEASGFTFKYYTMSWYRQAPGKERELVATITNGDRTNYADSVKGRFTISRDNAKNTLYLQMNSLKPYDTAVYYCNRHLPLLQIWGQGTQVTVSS
Tagg: 42.35
--
molecule: SDAB22110-3-2-H08: anti-Fel d1 VHH clone, SEQ ID NO: 53 (protein) VHH: QVQLVESGGGLVQPGGSLRLSCAASGFTFSRKGMSWYRQVPGKEREWVARIYSTGEKTDYADSVKGRFTISRDNAKNMVYLDMNSLKPEDTAVYYCKAWGYEYWNQGTQVTVSS
Tagg: 42.19
--
molecule: SDAB22110-1-1-B9-1: anti-Fel d1 VHH clone, SEQ ID NO: 50 (protein) VHH: DVQLVESGGGWVQPGGSLRLSCAASGFTFTSYALSWVRQAPGKGLEWVSLADARGTSTTYADSVKGRFTISKDNPRNTLYLLMNSLKPEDTAVYYCTKGFDGNWYPDYDYWGQGTQVTVSS
Tagg: 41.73
--
molecule: DAB22110-1-1-C3 (protein) VHH: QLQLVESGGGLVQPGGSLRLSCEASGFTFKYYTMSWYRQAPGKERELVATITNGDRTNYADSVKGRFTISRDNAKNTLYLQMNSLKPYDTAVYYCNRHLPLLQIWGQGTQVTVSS
Tagg: 58.85
--
molecule: SDAB22110-3-1-D9-1: anti-Fel d1 VHH clone, SEQ ID NO: 52 (protein) VHH: AVQLVESGGGLVQPGGSLRLSCIISGFTSVSYSIVWFRQAPGKGREGVSCIGSSGGSTDYIDSVKGRFTISRDSAKNTVYLQMDCLKPEDTAVYYCAALRDVYRLCVIDYMNNDYWGQGTQVTVSS
Tagg: 42.80
--
molecule: SDAB22110-4-3-B02: anti-Fel d1 VHH clone, SEQ ID NO: 54 (protein) VHH: QVQLVESGGGLVQPGGSLRLSCVASGFTFSFYTMEWYRQAAGKQRELVAGLTASGTTHYADSAKGRFTISRDNAWNTVFLQMNGLKPEDTAVYYCNAYSGYRDYWGQGTQVTVSL
Tagg: 35.82
--
molecule: SDAB22110-4-3-G08: anti-Fel d1 VHH clone, SEQ ID NO: 56 (protein) VHH: DVQLVESGGGLVQPGGSLRLSCAASGFTFSLYYMSWYRQVPGKERELVATITSGTHATTYADSVKGRFTISRDNAKNTVSLQMNSLKREDTGVYYCKRTNAGQDPWGQGTQVTVSS
Tagg: 31.77
--
molecule: SDAB22110-1-1-E4: anti-Fel d1 VHH clone, SEQ ID NO: 51 (protein) VHH: QLQLVESGGGLVQPGGSLRLSCTASGFTFSTAGTSWYRQSPGKARKLVAELSRIGGIANYADSVKGRFTISRDNTRNTVYLQMNSLKPEDTAVYYCKVVTNRNYGFTYWGQGTQVTVSS
Tagg: 39.61
